target: human GPR119 (Homo sapiens, UniProt Q8TDV5); construct: expression vector for human GPR119 cDNA (Acc. No. NP_848566); experiment: AlphaScreen cAMP assay in MIN6 cells stably transfected with human GPR119; conditions: Min-6/hGPR119 cells, AlphaScreen cAMP Assay Kit, 45 minutes incubation at room temperature
pEC50: −log10 of the molar value.
Rule: pEC50 under 7 gives not fulfilled, otherwise fulfilled.

Lookup: Please tell me: is the compound `Cc1nc(-c2noc(N3CCC(N(C(=O)c4ccc(-c5cnco5)cc4)C4CC4)CC3)n2)cs1` at or over 7 in terms of pEC50?
Found: not fulfilled

###

biological target: mutant form of the human GPR119 receptor (Homo sapiens, UniProt Q8TDV5, S329A/T327A); construct: T327 & S329 changed to alanines; assay: LANCE cAMP-384 assay in HEK293 cells stably expressing a mutant form of the human GPR119 receptor; conditions: HEK293 cells stably expressing mutant human GPR119, LANCE cAMP-384 Kit, 20 min at 37° C.
value_type: pEC50
Reminder that pEC50 is minus the log10 of a molar concentration.

{"molecule": "Cc1ncnn1-c1ccc(C(=O)N(C2CC2)C2CCN(c3ncc(C(F)(F)F)cc3F)CC2)cc1", "pEC50": 6.58}

Lookup: Entry `Cc1nnnn1-c1ccc(C(=O)N(C2CC2)C2CCN(c3ncc(C(F)(F)F)cc3F)CC2)cc1F` needs its pEC50 filled in; supply it.
Found: 6.93

###

Target: human GPR119 (Homo sapiens)
Construct: expression vector for human GPR119 cDNA (Acc. No. NP_848566)
Sequence (Q8TDV5 1-335): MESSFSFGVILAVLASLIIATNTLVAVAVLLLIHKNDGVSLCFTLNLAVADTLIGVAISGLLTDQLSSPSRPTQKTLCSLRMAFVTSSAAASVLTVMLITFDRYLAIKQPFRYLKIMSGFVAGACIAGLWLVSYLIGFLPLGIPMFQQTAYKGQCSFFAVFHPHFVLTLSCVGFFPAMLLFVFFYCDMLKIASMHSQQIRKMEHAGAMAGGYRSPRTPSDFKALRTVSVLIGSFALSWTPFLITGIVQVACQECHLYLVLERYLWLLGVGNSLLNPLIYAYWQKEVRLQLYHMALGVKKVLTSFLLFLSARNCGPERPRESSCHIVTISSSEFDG
Experiment: AlphaScreen cAMP assay in MIN6 cells stably transfected with human GPR119
Details: Min-6/hGPR119 cells, AlphaScreen cAMP Assay Kit, 45 minutes incubation at room temperature
Description: The compounds of formula I according to the invention modulate the activity of the G-protein-coupled receptor GPR119. The effect of the compounds on the activation of GPR119 and on the stimulation of intracellular cAMP concentration is determined using the AlphaScreen cAMP Assay Kit (Cat. No. #6760625R) made by PerkinElmer. MIN6 cells [Miyazaki J et al. Endocrinology. 1990 July; 127(1):126-32] are stably transfected with an expression vector for human GPR119 cDNA (Acc. No. NP_848566). […]
value_type: EC50 (nM)
Supply the numeric figure in nM, leaving out any unit text.

{"smiles_text": "O=C(c1ccc(-c2cnco2)cc1)N(C1CC1)C1CCN(c2cnc(C3CC3)cn2)CC1", "measurement_units": "nM", "EC50": 43}

Lookup: Entry `O=C(c1ccc(-c2cnco2)cc1)N(C1CC1)C1CCN(c2ncc(F)cn2)CC1` needs its EC50 filled in; supply it.
Found: 78

Lookup: Entry `O=C(c1ccc(-c2cnco2)cc1)N(C1CC1)C1CCN(c2noc(-c3ccccc3)n2)CC1` needs its EC50 filled in; supply it.
Found: 37

Lookup: Entry `O=C(c1ccc(-c2cnco2)cc1)N(C1CC1)C1CCN(c2ccc(F)cn2)CC1` needs its EC50 filled in; supply it.
Found: 276

Lookup: Entry `O=C(c1ccc(-c2cnco2)cc1)N(C1CC1)C1CCN(c2ccccn2)CC1` needs its EC50 filled in; supply it.
Found: 676

Lookup: Entry `O=C(c1ccc(-c2cnco2)cc1)N(C1CC1)C1CCN(c2ncc(C3CC3)cn2)CC1` needs its EC50 filled in; supply it.
Found: 71

Lookup: Entry `Cc1ncoc1-c1ccc(C(=O)N(C2CC2)C2CCN(c3nc(C(C)C)no3)CC2)cc1` needs its EC50 filled in; supply it.
Found: 17

Lookup: Entry `CC(C)(C)c1noc(N2CCC(N(C(=O)c3ccc(-c4cnco4)cc3)C3CC3)CC2)n1` needs its EC50 filled in; supply it.
Found: 19

Lookup: Entry `CCc1cnc(N2CCC(N(C(=O)c3ccc(-c4cnco4)c(F)c3)C3CC3)CC2)nc1` needs its EC50 filled in; supply it.
Found: 3

Lookup: Entry `O=C(c1ccc(-c2cnco2)cc1)N(C1CC1)C1CCN(c2nc(CC3CCOCC3)no2)CC1` needs its EC50 filled in; supply it.
Found: 1150

###

biological target: human GPR119 (Homo sapiens); construct: expression vector for human GPR119 cDNA (Acc. No. NP_848566); test: AlphaScreen cAMP assay in MIN6 cells stably transfected with human GPR119; conditions: Min-6/hGPR119 cells, AlphaScreen cAMP Assay Kit, 45 minutes incubation at room temperature
value_type: pEC50
Reminder that pEC50 is minus the log10 of a molar concentration.

Worked set:
{"smiles_text": "O=C(c1ccc(-c2cnco2)cc1)N(C1CC1)C1CCN(c2nc(-c3cccnc3)no2)CC1", "value_type": "pEC50", "obs_value": 6.82}
{"smiles_text": "O=C(c1ccc(-c2ccncc2)cc1)N(C1CC1)C1CCN(c2nc(-c3ccccc3)no2)CC1", "value_type": "pEC50", "obs_value": 7.64}
{"smiles_text": "CCCc1noc(N2CCC(N(C(=O)c3ccc(-c4cnco4)cc3)C3CC3)CC2)n1", "value_type": "pEC50", "obs_value": 7.44}
{"smiles_text": "O=C(c1ccc(-c2cnco2)cc1)N(C1CC1)C1CCN(c2noc(C3CCC3)n2)CC1", "value_type": "pEC50", "obs_value": 7.77}
{"smiles_text": "COC(=O)c1cnc(N2CCC(N(C(=O)c3ccc(-c4cnco4)cc3)C3CC3)CC2)cn1", "value_type": "pEC50", "obs_value": 6.30}
{"smiles_text": "CCCc1noc(N2CCC(N(C(=O)c3ccc(-c4cnco4)c(F)c3)C3CC3)CC2)n1", "value_type": "pEC50", "obs_value": 8.15}
{"smiles_text": "Cc1cnc(N2CCC(N(C(=O)c3ccc(-c4cnco4)cc3)C3CC3)CC2)nc1", "value_type": "pEC50", "obs_value": 7.47}
{"smiles_text": "CCc1noc(N2CCC(N(C(=O)c3ccc(-c4cnco4)cc3)C3CC3)CC2)n1", "value_type": "pEC50", "obs_value": 7.29}
{"smiles_text": "O=C(c1ccc(-c2cnco2)cc1)N(C1CC1)C1CCN(c2nc(-c3ccsc3)no2)CC1", "value_type": "pEC50", "obs_value": 7.57}
{"smiles_text": "O=C(c1ccc(-c2cnco2)cc1)N(C1CC1)C1CCN(c2nc(-c3cccc(Br)c3)no2)CC1", "value_type": "pEC50", "obs_value": 7.01}

Now, please, on to the next compound.
Lookup: Entry `N#Cc1ccc(N2CCC(N(C(=O)c3ccc(-c4cnco4)cc3)C3CC3)CC2)nc1` needs its pEC50 filled in; supply it.
Found: 6.84

###

molecular target: mutant form of the human GPR119 receptor (Homo sapiens, UniProt Q8TDV5, S329A/T327A); construct: T327 & S329 changed to alanines; experiment: LANCE cAMP-384 assay in HEK293 cells stably expressing a mutant form of the human GPR119 receptor; conditions: HEK293 cells stably expressing mutant human GPR119, LANCE cAMP-384 Kit, 20 min at 37° C.
value_type: pEC50
Reminder that pEC50 is minus the log10 of a molar concentration.

Worked set:
{"compound": "Cc1ncnn1-c1ccc(C(=O)N(C2CC2)C2CCN(c3ncc(Cl)cn3)CC2)cc1", "obs_value": 5.76}
{"compound": "CCc1cnc(N2CCC(N(C(=O)c3ccc(-n4ccnc4C)cc3)C3CC3)CC2)nc1", "obs_value": 5.96}

Lookup: Lab note: record pEC50 of `O=C(c1ccc(-n2cncn2)c(F)c1)N(C1CC1)C1CCN(c2ncc(C(F)(F)F)cc2F)CC1` tested on mutant form of the human GPR119 receptor (Homo sapiens, UniProt Q8TDV5, S329A/T327A).
Found: 8.00

Lookup: Lab note: record pEC50 of `CC(C)c1noc(N2CCC(N(C(=O)c3ccc(-n4cncn4)c(F)c3)C3CC3)CC2)n1` tested on mutant form of the human GPR119 receptor (Homo sapiens, UniProt Q8TDV5, S329A/T327A).
Found: 7.35

Lookup: Lab note: record pEC50 of Cc1nnnn1-c1ccc(C(=O)N(C2CC2)[C@@H]2CCN(c3ccc(C(F)(F)F)cn3)C[C@@H]2F)cc1 (single isomer, unassigned) tested on mutant form of the human GPR119 receptor (Homo sapiens, UniProt Q8TDV5, S329A/T327A).
Found: 6.13

Lookup: Lab note: record pEC50 of `CCc1cnc(N2CCC(N(C(=O)c3ccc(-n4ncnc4C)cc3)C3CC3)CC2)nc1` tested on mutant form of the human GPR119 receptor (Homo sapiens, UniProt Q8TDV5, S329A/T327A).
Found: 5.80

Lookup: Lab note: record pEC50 of `CCc1cnc(N2CCC(N(C(=O)c3ccc(-n4ccnc4C)c(F)c3)C3CC3)CC2)nc1` tested on mutant form of the human GPR119 receptor (Homo sapiens, UniProt Q8TDV5, S329A/T327A).
Found: 5.71

Lookup: Lab note: record pEC50 of `O=C(c1ccc(-n2cncn2)cc1)N(C1CC1)C1CCN(c2ncc(Cl)cn2)CC1` tested on mutant form of the human GPR119 receptor (Homo sapiens, UniProt Q8TDV5, S329A/T327A).
Found: 6.26

Lookup: Lab note: record pEC50 of O=C(c1ccc(-n2cnnn2)c(F)c1)N(C1CC1)[C@@H]1CCN(c2ccc(C(F)(F)F)cn2)C[C@@H]1F (single isomer, unassigned) tested on mutant form of the human GPR119 receptor (Homo sapiens, UniProt Q8TDV5, S329A/T327A).
Found: 6.87

Lookup: Lab note: record pEC50 of `Cc1nccn1-c1ccc(C(=O)N(C2CC2)C2CCN(c3ncc(Cl)cn3)CC2)cc1` tested on mutant form of the human GPR119 receptor (Homo sapiens, UniProt Q8TDV5, S329A/T327A).
Found: 6.26
